These entries and their values trace back to patent US20010012846A1.

Ki for assorted molecules
- Tested On: human neurokinin-3 receptor (Homo sapiens, UniProt P29371)
- Construct: expressed in transfected cells; host or cells: CHO
- Sequence (P29371 1-465): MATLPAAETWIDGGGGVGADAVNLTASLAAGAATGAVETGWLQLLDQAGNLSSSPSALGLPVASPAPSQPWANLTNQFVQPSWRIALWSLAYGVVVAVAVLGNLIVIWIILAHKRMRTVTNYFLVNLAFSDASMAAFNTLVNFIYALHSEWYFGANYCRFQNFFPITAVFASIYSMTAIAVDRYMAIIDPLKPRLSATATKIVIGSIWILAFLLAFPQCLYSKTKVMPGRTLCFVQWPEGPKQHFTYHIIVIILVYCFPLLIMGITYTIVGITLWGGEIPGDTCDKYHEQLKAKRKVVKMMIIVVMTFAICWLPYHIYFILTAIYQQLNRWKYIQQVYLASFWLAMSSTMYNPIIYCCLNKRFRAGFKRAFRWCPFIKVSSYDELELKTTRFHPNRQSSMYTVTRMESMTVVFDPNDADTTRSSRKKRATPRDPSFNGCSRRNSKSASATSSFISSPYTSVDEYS
- Assay Comment: Binding affinity to human NK-3 receptor expressed in CHO cells (inhibition of [125I]-[Me-Phe7]-NKB or [3H]-Senktide binding)
- Particulars: human neurokinin-3 receptor expressed in CHO cell lines; read-out: Binding affinity, Ki (nM) hNK-3-CHO
- Protocol: The activity of the compounds of the present invention, as NK3 ligands, is determined by their ability to inhibit the binding of the radiolabelled NK3 ligands, [^125I]-[Me-Phe^7]-NKB or [^3H]-Senktide, to guinea-pig and human NK3 receptors (Renzetti et al, 1991, Neuropeptide, 18, 104-114; Buell et al, 1992, FEBS, 299(1), 90-95; Chung et al, 1994, Biochem. Biophys. Res. Commun., 198(3), 967-972). […]
Give a bare numeral; the unit nM is implied.

# Compound Smiles, Tested On, Ki / nM
measured = [
    ("CC[C@H](NC(=O)c1c(CN(C)CCO)c(-c2ccccc2)nc2ccccc12)c1ccccc1", "human neurokinin-3 receptor (Homo sapiens, UniProt P29371)", 1.2),
    ("CC[C@H](NC(=O)c1c(CCN2CCN(c3ccc(F)cc3)CC2)c(-c2ccccc2)nc2ccccc12)c1ccccc1", "human neurokinin-3 receptor (Homo sapiens, UniProt P29371)", 3),
    ("CC[C@H](NC(=O)c1c(CCN2CCN(c3ccccc3)CC2)c(-c2ccccc2)nc2ccccc12)c1ccccc1", "human neurokinin-3 receptor (Homo sapiens, UniProt P29371)", 1.9),
    ("CC[C@H](NC(=O)c1c(CN2CCN(C)CC2)c(-c2ccccc2)nc2ccccc12)c1ccccc1", "human neurokinin-3 receptor (Homo sapiens, UniProt P29371)", 4),
]

Item under review: CC[C@H](NC(=O)c1c(CN2CCC(=O)C2)c(-c2ccccc2)nc2ccccc12)c1ccccc1 . Reported Ki?
1.5

Item under review: CC[C@H](NC(=O)c1c(CN2CCN(Cc3ccccc3)CC2)c(-c2ccccc2)nc2ccccc12)c1ccccc1 . Reported Ki?
0.4

Item under review: CC[C@H](NC(=O)c1c(CN2CCC[C@@H]2CO)c(-c2ccccc2)nc2ccccc12)c1ccccc1 . Reported Ki?
0.9

###

Ki for assorted molecules
- Tested On: human neurokinin-3 receptor (Homo sapiens)
- Construct: expressed in transfected cells; host or cells: CHO
- Assay Comment: Binding affinity to human NK-3 receptor expressed in CHO cells (inhibition of [125I]-[Me-Phe7]-NKB or [3H]-Senktide binding)
- Particulars: human neurokinin-3 receptor expressed in CHO cell lines; read-out: Binding affinity, Ki (nM) hNK-3-CHO
- Procedure: The activity of the compounds of the present invention, as NK3 ligands, is determined by their ability to inhibit the binding of the radiolabelled NK3 ligands, [^125I]-[Me-Phe^7]-NKB or [^3H]-Senktide, to guinea-pig and human NK3 receptors (Renzetti et al, 1991, Neuropeptide, 18, 104-114; Buell et al, 1992, FEBS, 299(1), 90-95; Chung et al, 1994, Biochem. Biophys. Res. Commun., 198(3), 967-972). […]
Give a bare numeral; the unit nM is implied.

# Compound Smiles, Ki, nM
records = [
    ("CC[C@H](NC(=O)c1c(CCCN2CCN(c3cccc(C(F)(F)F)c3)CC2)c(-c2ccccc2)nc2ccccc12)c1ccccc1", 1.2),
    ("CC(C)[C@H](NC(=O)c1c(CN(C)C)c(-c2ccccc2)nc2ccccc12)c1ccccc1", 3.3),
]

Item under review: CC[C@H](NC(=O)c1c(CCN2CCN(C(C)C)CC2)c(-c2ccccc2)nc2ccccc12)c1ccccc1 . Reported Ki?
0.8

Item under review: CC(C)[C@H](NC(=O)c1c(CN2CCN(C(C)C)CC2)c(-c2ccccc2)nc2ccccc12)c1ccccc1 . Reported Ki?
1

Item under review: CC[C@H](NC(=O)c1c(CN2CCC(O)CC2)c(-c2ccccc2)nc2ccccc12)c1ccccc1 . Reported Ki?
2.3

Item under review: CC[C@H](NC(=O)c1c(CN2CCN(CCc3ccccc3)CC2)c(-c2ccccc2)nc2ccccc12)c1ccccc1 . Reported Ki?
0.8

###

- Tested On: human neurokinin-3 receptor (Homo sapiens, UniProt P29371)
- Construct: expressed in transfected cells; host or cells: CHO
- Assay Comment: Binding affinity to human NK-3 receptor expressed in CHO cells (inhibition of [125I]-[Me-Phe7]-NKB or [3H]-Senktide binding)
- Particulars: human neurokinin-3 receptor expressed in CHO cell lines; read-out: Binding affinity, Ki (nM) hNK-3-CHO
Measurement Kind: Ki (nM)
Give a bare numeral; the unit nM is implied.

Example entries begin here.
# Compound Smiles, Tested On, Measurement Kind, Measured Value
records = [
    ("CC[C@H](NC(=O)c1c(CN2CC[C@H](O)C2)c(-c2ccccc2)nc2ccccc12)c1ccccc1", "human neurokinin-3 receptor (Homo sapiens, UniProt P29371)", "Ki", 3.2),
    ("CC[C@H](NC(=O)c1c(CCN2CCN(c3cccc(C(F)(F)F)c3)CC2)c(-c2ccccc2)nc2ccccc12)c1ccccc1", "human neurokinin-3 receptor (Homo sapiens, UniProt P29371)", "Ki", 2.9),
]

Turning now to a further record.
Item under review: CC[C@H](NC(=O)c1c(CCCN2CCN(c3ccc(Cl)cc3)CC2)c(-c2ccccc2)nc2ccccc12)c1ccccc1 . Reported Ki?
0.9

###

- Tested On: human neurokinin-2 receptor (Homo sapiens, UniProt P21452)
- Construct: expressed in transfected cells; host or cells: CHO
- Sequence (P21452 whole entry): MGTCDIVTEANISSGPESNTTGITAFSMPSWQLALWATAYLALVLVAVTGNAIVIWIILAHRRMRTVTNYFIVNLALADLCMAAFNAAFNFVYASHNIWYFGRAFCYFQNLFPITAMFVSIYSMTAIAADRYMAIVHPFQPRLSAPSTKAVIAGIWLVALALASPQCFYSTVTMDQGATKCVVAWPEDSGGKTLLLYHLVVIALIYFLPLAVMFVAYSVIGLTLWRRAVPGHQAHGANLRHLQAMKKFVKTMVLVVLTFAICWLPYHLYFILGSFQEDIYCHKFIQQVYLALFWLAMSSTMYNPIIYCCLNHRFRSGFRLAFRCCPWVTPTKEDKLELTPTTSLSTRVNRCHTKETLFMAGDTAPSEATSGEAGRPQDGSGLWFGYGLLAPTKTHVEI
- Assay Comment: Binding affinity to human NK-2 receptor expressed in CHO cells (inhibition of [125I]-NKA or [3H]-NKA binding)
- Particulars: human neurokinin-2 receptor expressed in CHO cell lines; read-out: Binding affinity, Ki (nM) hNK-2-CHO
Ki for assorted molecules
Value and unit, in that order.

Example entries begin here.
# Compound Smiles, Tested On, Ki
records = [
    ("CC[C@H](NC(=O)c1c(CN2CCC(O)CC2)c(-c2ccccc2)nc2ccccc12)c1ccccc1", "human neurokinin-2 receptor (Homo sapiens, UniProt P21452)", "44.6 nM"),
    ("CC[C@H](NC(=O)c1c(CCCN2C(=O)c3ccccc3C2=O)c(-c2ccccc2)nc2ccccc12)c1ccccc1", "human neurokinin-2 receptor (Homo sapiens, UniProt P21452)", "6.4 nM"),
    ("CC[C@H](NC(=O)c1c(CN2CCC[C@@H]2CO)c(-c2ccccc2)nc2ccccc12)c1ccccc1", "human neurokinin-2 receptor (Homo sapiens, UniProt P21452)", "73.2 nM"),
    ("CC[C@H](NC(=O)c1c(CCN2CCN(c3ccc(Cl)cc3)CC2)c(-c2ccccc2)nc2ccccc12)c1ccccc1", "human neurokinin-2 receptor (Homo sapiens, UniProt P21452)", "53.5 nM"),
    ("CC(C)[C@H](NC(=O)c1c(CN(C)C)c(-c2ccccc2)nc2ccccc12)c1ccccc1", "human neurokinin-2 receptor (Homo sapiens, UniProt P21452)", "56.7 nM"),
    ("CC[C@H](NC(=O)c1c(CN2CC[C@@H](O)C2)c(-c2ccccc2)nc2ccccc12)c1ccccc1", "human neurokinin-2 receptor (Homo sapiens, UniProt P21452)", "64.8 nM"),
    ("CC[C@H](NC(=O)c1c(CCCCN2CCN(c3ccccc3)CC2)c(-c2ccccc2)nc2ccccc12)c1ccccc1", "human neurokinin-2 receptor (Homo sapiens, UniProt P21452)", "22.2 nM"),
    ("CC[C@H](NC(=O)c1c(CCN2CCN(c3ccc(C)cc3)CC2)c(-c2ccccc2)nc2ccccc12)c1ccccc1", "human neurokinin-2 receptor (Homo sapiens, UniProt P21452)", "35.3 nM"),
    ("CC[C@H](NC(=O)c1c(CN2CCN(C)CC2)c(-c2ccccc2)nc2ccccc12)c1ccccc1", "human neurokinin-2 receptor (Homo sapiens, UniProt P21452)", "66.8 nM"),
    ("CC[C@H](NC(=O)c1c(CCN2CCN(c3cccc(C(F)(F)F)c3)CC2)c(-c2ccccc2)nc2ccccc12)c1ccccc1", "human neurokinin-2 receptor (Homo sapiens, UniProt P21452)", "44.9 nM"),
]

Item under review: CC[C@H](NC(=O)c1c(CCN2CCN(c3ccccc3)CC2)c(-c2ccccc2)nc2ccccc12)c1ccccc1 . Reported Ki?
39 nM

Item under review: CC(C)[C@H](NC(=O)c1c(CN2CCN(C(C)C)CC2)c(-c2ccccc2)nc2ccccc12)c1ccccc1 . Reported Ki?
1.2 nM
